System: 556581-035-R-J1-PDC complex spheroid growth;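 note: spheroids exposed to agents for 7 days before viability read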
Test: Anticancer human tumor 556581-035-R-J1-PDC patient-derived ovarian carcinoma cell line growth inhibition [Asc]
Settings: second compound 1 µM; first compound 0.316 µM; stronger effect = lower value
Assignment: determine reported viability, T/C for the given compounds.
Unit % implied. Number only.

### Prompt Provide the reported viability, T/C (system: 556581-035-R-J1-PDC complex spheroid growth) for O=C(c1ccc(F)c(F)c1Nc1ccc(I)cc1F)N1CC(O)([C@@H]2CCCCN2)C1 + Cc1c(S(C)(=O)=O)c(-c2cc(F)cc(N3CCN(c4ccc(NS(=O)(=O)c5ccc(NC(CCN6CCC(C(=O)OCCCP(=O)(O)O)CC6)CSc6ccccc6)c(S(=O)(=O)C(F)(F)F)c5)cc4)CC3)c2)c(-c2ccc(Cl)cc2)n1C(C)C;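 note: spheroids exposed to agents for 7 days before viability read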
### Response 8.66

### Prompt Provide the reported viability, T/C (system: 556581-035-R-J1-PDC complex spheroid growth) for COc1c(OCCCN2CCOCC2)ccc2c3n(c(=NC(=O)c4cnc(N)nc4)nc12)CCN3 + Cc1c(S(C)(=O)=O)c(-c2cc(F)cc(N3CCN(c4ccc(NS(=O)(=O)c5ccc(NC(CCN6CCC(C(=O)OCCCP(=O)(O)O)CC6)CSc6ccccc6)c(S(=O)(=O)C(F)(F)F)c5)cc4)CC3)c2)c(-c2ccc(Cl)cc2)n1C(C)C;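 note: spheroids exposed to agents for 7 days before viability read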
### Response 14.2

### Prompt Provide the reported viability, T/C (system: 556581-035-R-J1-PDC complex spheroid growth) for C=C(F)C(=O)N1CCN(c2nc(OCC3CCCN3C)nc3c2CCN(c2cccc4cccc(Cl)c24)C3)CC1CC#N (configuration not stated) + CNC(C)C(=O)NC1CN(S(=O)(=O)c2cccc(S(=O)(=O)N3CCC4CCC(C(=O)NC(c5ccccc5)c5ccccc5)N4C(=O)C(NC(=O)C(C)NC)C3)c2)CCC2CCC(C(=O)NC(c3ccccc3)c3ccccc3)N2C1=O;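 note: spheroids exposed to agents for 7 days before viability read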
### Response 62.3

### Prompt Provide the reported viability, T/C (system: 556581-035-R-J1-PDC complex spheroid growth) for C=C(F)C(=O)N1CCN(c2nc(OCC3CCCN3C)nc3c2CCN(c2cccc4cccc(Cl)c24)C3)CC1CC#N (configuration not stated) + Cc1c(S(C)(=O)=O)c(-c2cc(F)cc(N3CCN(c4ccc(NS(=O)(=O)c5ccc(NC(CCN6CCC(C(=O)OCCCP(=O)(O)O)CC6)CSc6ccccc6)c(S(=O)(=O)C(F)(F)F)c5)cc4)CC3)c2)c(-c2ccc(Cl)cc2)n1C(C)C;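 note: spheroids exposed to agents for 7 days before viability read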
### Response 64.9

### Prompt Provide the reported viability, T/C (system: 556581-035-R-J1-PDC complex spheroid growth) for O=C(c1ccc(F)c(F)c1Nc1ccc(I)cc1F)N1CC(O)([C@@H]2CCCCN2)C1 + CNC(C)C(=O)NC1CN(S(=O)(=O)c2cccc(S(=O)(=O)N3CCC4CCC(C(=O)NC(c5ccccc5)c5ccccc5)N4C(=O)C(NC(=O)C(C)NC)C3)c2)CCC2CCC(C(=O)NC(c3ccccc3)c3ccccc3)N2C1=O;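 note: spheroids exposed to agents for 7 days before viability read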
### Response 24.6

### Prompt Provide the reported viability, T/C (system: 556581-035-R-J1-PDC complex spheroid growth) for O=C(c1cc(Cc2n[nH]c(=O)c3ccccc23)ccc1F)N1CCN(C(=O)C2CC2)CC1 + CNC(C)C(=O)NC1CN(S(=O)(=O)c2cccc(S(=O)(=O)N3CCC4CCC(C(=O)NC(c5ccccc5)c5ccccc5)N4C(=O)C(NC(=O)C(C)NC)C3)c2)CCC2CCC(C(=O)NC(c3ccccc3)c3ccccc3)N2C1=O;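 note: spheroids exposed to agents for 7 days before viability read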
### Response 73.8

### Prompt Provide the reported viability, T/C (system: 556581-035-R-J1-PDC complex spheroid growth) for C#Cc1c(F)ccc2cc(O)cc(-c3ncc4c(N5CC6CCC(C5)N6)nc(OCC56CCCN5CC(F)C6)nc4c3F)c12 (configuration not stated) + CNC(C)C(=O)NC1CN(S(=O)(=O)c2cccc(S(=O)(=O)N3CCC4CCC(C(=O)NC(c5ccccc5)c5ccccc5)N4C(=O)C(NC(=O)C(C)NC)C3)c2)CCC2CCC(C(=O)NC(c3ccccc3)c3ccccc3)N2C1=O;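 note: spheroids exposed to agents for 7 days before viability read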
### Response 65.6

The reported measurements were obtained from PubChem BioAssay AID1963450.
